assay: GI S9 stability - no PMSF; format: in vitro ADME; conditions: pH 7.4; human intestinal S9, PMSF-free; read-out: GIS9-HUMAN-NoPMSF T1/2
REPORTED ENDPOINT: half-life at 2 µM (min)
Numbers only here, please. The scale is min.

Record excerpt, results attached:
compound=CC(C)COC(=O)OC[C@H]1O[C@@](C#N)(c2ccc3c(N)ncnn23)[C@H](O)[C@@H]1O numeric_result=1.45
compound="CC1=CCC(OC(=O)OC[C@H]2O[C@@](C#N)(c3ccc4c(N)ncnn34)[C@H](O)[C@@H]2O)(C(C)C)CC1 (some centres unmarked)" numeric_result=30.3
compound=CCC(C)(C)OC(=O)OC[C@H]1O[C@@](C#N)(c2ccc3c(N)ncnn23)[C@H](O)[C@@H]1O numeric_result=73
compound=CC(C)OC(=O)[C@H]([C@@H](C)OC(=O)OC[C@H]1O[C@@](C#N)(c2ccc3c(N)ncnn23)[C@H](O)[C@@H]1O)N(C)C numeric_result=32.8
compound=CC[C@@H](C)OC(=O)OC[C@H]1O[C@@](C#N)(c2ccc3c(N)ncnn23)[C@H](O)[C@@H]1O numeric_result=0.59

Problem: Which measured half-life at 2 µM value corresponds to CC1(C)CC(OC(=O)OC[C@H]2O[C@@](C#N)(c3ccc4c(N)ncnn34)[C@H](O)[C@@H]2O)C1 ?
Solution: 0.857

Problem: Next: N#C[C@@]1(c2ccc3c(N)ncnn23)O[C@H](COC(=O)OC2CC3(CCC3)C2)[C@@H](O)[C@H]1O
Solution: 0.617

Problem: Next: COC(=O)OC[C@H]1O[C@@](C#N)(c2ccc3c(N)ncnn23)[C@H](OC(=O)OC)[C@@H]1OC(=O)OC
Solution: 1.02

* * *

Reported pH 7 Stability 24 h % AN by item:
test: Stability in pH7 buffered solution; assay type: physicochemical; settings: pH7 phosphate buffer, 40° C., Table N2
Numbers only here, please. The scale is % AN.

Record excerpt, results attached:
molecule=CC(C)OC(=O)Nc1ncnn2c([C@]3(C#N)O[C@H](COC(=O)OC(C)C)[C@@H](O)[C@H]3O)ccc12 numeric_result=97
molecule=CC(C)OC(=O)OC[C@H]1O[C@@](C#N)(c2ccc3c(N)ncnn23)[C@@H]2OC(=O)O[C@@H]21 numeric_result=0
molecule=CC(C)OC(=O)OC[C@H]1O[C@@](C#N)(c2ccc3c(N)ncnn23)[C@H](OC(=O)OC(C)C)[C@@H]1OC(=O)OC(C)C numeric_result=98

Problem: Which measured pH 7 Stability 24 h % AN value corresponds to COC(=O)[C@H]([C@@H](C)OC(=O)OC[C@H]1O[C@@](C#N)(c2ccc3c(N)ncnn23)[C@H](O)[C@@H]1O)N(C)C ?
Solution: 0

Problem: Next: CC1(C)[C@@H]2CC[C@@]1(C)[C@@H](OC(=O)OC[C@H]1O[C@@](C#N)(c3ccc4c(N)ncnn34)[C@H](O)[C@@H]1O)C2
Solution: 97

Problem: Next: CC(C)(OC(=O)OC[C@H]1O[C@@](C#N)(c2ccc3c(N)ncnn23)[C@H](O)[C@@H]1O)C(F)(F)F
Solution: 91

* * *

test system: Caco-2 cells (clone C2BBe1); assay: CACO-2 permeability; type: in vitro ADME; parameters: unit not given here; settings: apical to basolateral; donor pH 6.5, receiver pH 7.4
Decision: DM Caco2 A to B beneath 0.9 gives Yes; DM Caco2 A to B meeting or exceeding 0.9 gives No.

compound=CCC(C)(C)OC(=O)OC[C@H]1O[C@@](C#N)(c2ccc3c(N)ncnn23)[C@H](OC(=O)OC(C)(C)CC)[C@@H]1OC(=O)OC(C)(C)CC target_entity="Caco-2 cells (clone C2BBe1)" label_class=Yes

Problem: Please determine if N#C[C@@]1(c2ccc3c(N)ncnn23)O[C@H](COC(=O)OC2CCCCC2)[C@@H](O)[C@H]1O is below 0.9 in terms of DM Caco2 A to B.
Solution: No

Problem: Next: CCCCCCCCCCOC(=O)OC[C@H]1O[C@@](C#N)(c2ccc3c(N)ncnn23)[C@H](O)[C@@H]1O
Solution: Yes

Problem: Next: CC(C)OC(=O)Nc1ncnn2c([C@]3(C#N)O[C@H](COC(=O)OC(C)C)[C@@H](O)[C@H]3O)ccc12
Solution: No

Problem: Next: CC1(COC(=O)OC[C@H]2O[C@@](C#N)(c3ccc4c(N)ncnn34)[C@H](O)[C@@H]2O)CC1
Solution: No

Problem: Next: CCOC(=O)C(C)(C)OC(=O)OC[C@H]1O[C@@](C#N)(c2ccc3c(N)ncnn23)[C@H](O)[C@@H]1O
Solution: Yes

Problem: Next: N#C[C@@]1(c2ccc3c(N)ncnn23)O[C@H](COC(=O)OC2CC3(CCC3)C2)[C@@H](O)[C@H]1O
Solution: No

Problem: Next: N#C[C@@]1(c2ccc3c(N)ncnn23)O[C@H](COC(=O)OC23CC(C(F)(F)F)(C2)C3)[C@@H](O)[C@H]1O
Solution: No

Problem: Next: N#C[C@@]1(c2ccc3c(N)ncnn23)O[C@H](COC(=O)Oc2ccccc2)[C@@H](O)[C@H]1O
Solution: Yes

Problem: Next: N#C[C@@]1(c2ccc3c(N)ncnn23)O[C@H](COC(=O)OC2CCCCCCC2)[C@@H](O)[C@H]1O
Solution: No

Problem: Next: CC1(C)C2CCC1(C)C(OC(=O)OC[C@H]1O[C@@](C#N)(c3ccc4c(N)ncnn34)[C@H](O)[C@@H]1O)C2 (stereo partly drawn)
Solution: No

Problem: Next: CC(C)(OC(=O)OC[C@H]1O[C@@](C#N)(c2ccc3c(N)ncnn23)[C@H](O)[C@@H]1O)c1ccccn1
Solution: Yes

Problem: Next: N#C[C@@]1(c2ccc3c(N)ncnn23)O[C@H](COC(=O)OC2CCOCC2)[C@@H](O)[C@H]1O
Solution: Yes

Problem: Next: CC(=O)O[C@H]1[C@@H](OC(C)=O)[C@](C#N)(c2ccc3c(N)ncnn23)O[C@@H]1COC(=O)OC(C)(C)c1ccncc1
Solution: Yes

Problem: Next: N#C[C@@]1(c2ccc3c(N)ncnn23)O[C@H](COC(=O)OCc2ncccn2)[C@@H](O)[C@H]1O
Solution: Yes
